biological target: Trypanothione reductase (Trypanosoma cruzi); test: Non-competitive inhibition of Trypanosoma cruzi trypanothione reductase assessed as reduction in NADPH consumption using varying levels of trypanothione disulfide as substrate by Lineweaver-Burk plot analysis
Sequence (P28593 whole entry): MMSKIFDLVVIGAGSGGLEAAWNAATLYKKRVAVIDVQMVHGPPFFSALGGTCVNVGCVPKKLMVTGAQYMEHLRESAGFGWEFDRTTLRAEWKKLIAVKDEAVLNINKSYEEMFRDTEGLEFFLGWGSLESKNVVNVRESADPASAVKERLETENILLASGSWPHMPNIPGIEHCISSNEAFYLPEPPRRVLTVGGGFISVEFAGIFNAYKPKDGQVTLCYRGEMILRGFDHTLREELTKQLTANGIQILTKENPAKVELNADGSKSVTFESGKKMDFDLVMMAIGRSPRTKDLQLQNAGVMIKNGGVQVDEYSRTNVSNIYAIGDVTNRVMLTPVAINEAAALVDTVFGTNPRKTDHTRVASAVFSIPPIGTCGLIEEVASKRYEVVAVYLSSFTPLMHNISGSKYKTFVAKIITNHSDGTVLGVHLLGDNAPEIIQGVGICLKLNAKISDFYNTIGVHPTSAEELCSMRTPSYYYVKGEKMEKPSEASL
parameterMeasured: Ki (µM)
One number for each entry, in µM.

Tell me the measured Ki of COc1cccc2c1C(=O)c1oc3c(c1C2=O)c(=O)oc1ccccc13 , please.
22.4

* * *

assay: Inhibition of Trypanosoma brucei glyceraldehyde-3-phosphate dehydrogenase using GAP as substrate in presence of NAD+ by spectrophotometric method
parameterMeasured: IC50 (nM)
Answers are plain numbers, in nM.

Would you mind telling me what IC50 value was observed for Nc1ccc2oc(=O)c3c4c(oc3c2c1)C(=O)c1c(O)cccc1C4=O ?
2100

* * *

Assign inhibition at 10 µM to each entry below.
target: hERG (KCNH2) (Homo sapiens); experiment: Inhibition of Tracer Red binding to human ERG expressed in membranes at 10 uM by fluorescence polarization assay relative to control; details: membranes expressing human ERG, probe Tracer Red
Sequence (Q12809 whole entry): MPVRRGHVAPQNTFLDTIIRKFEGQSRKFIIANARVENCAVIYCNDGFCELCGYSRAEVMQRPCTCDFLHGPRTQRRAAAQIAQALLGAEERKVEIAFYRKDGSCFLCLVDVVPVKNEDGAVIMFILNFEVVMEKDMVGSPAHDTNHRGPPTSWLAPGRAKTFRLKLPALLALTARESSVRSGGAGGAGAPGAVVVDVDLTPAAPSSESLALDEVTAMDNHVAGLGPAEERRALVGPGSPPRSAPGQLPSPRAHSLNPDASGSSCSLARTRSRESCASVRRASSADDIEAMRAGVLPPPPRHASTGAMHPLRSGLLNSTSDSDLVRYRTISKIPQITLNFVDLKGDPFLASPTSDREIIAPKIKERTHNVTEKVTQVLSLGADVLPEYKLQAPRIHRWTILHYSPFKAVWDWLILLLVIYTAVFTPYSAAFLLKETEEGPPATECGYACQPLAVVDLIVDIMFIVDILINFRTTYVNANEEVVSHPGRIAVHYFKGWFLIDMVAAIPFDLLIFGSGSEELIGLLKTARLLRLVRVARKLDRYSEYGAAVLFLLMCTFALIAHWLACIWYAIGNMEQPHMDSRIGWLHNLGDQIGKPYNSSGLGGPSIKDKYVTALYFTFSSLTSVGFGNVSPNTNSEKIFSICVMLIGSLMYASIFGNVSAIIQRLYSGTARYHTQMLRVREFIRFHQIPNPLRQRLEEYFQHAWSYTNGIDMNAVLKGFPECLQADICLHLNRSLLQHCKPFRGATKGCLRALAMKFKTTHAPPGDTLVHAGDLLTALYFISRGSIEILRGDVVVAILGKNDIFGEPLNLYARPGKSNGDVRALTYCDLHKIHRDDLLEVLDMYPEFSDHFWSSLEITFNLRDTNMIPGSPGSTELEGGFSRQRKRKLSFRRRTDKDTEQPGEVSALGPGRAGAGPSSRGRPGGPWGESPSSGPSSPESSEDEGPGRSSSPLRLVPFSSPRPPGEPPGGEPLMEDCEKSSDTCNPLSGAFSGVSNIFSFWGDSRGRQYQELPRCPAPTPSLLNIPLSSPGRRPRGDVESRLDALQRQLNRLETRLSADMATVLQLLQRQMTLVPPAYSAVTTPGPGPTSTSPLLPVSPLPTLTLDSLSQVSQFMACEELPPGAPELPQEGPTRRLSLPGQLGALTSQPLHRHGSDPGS
One number for each entry, in %.

For every item in the list below, what is its measured inhibition at 10 µM?
1. CC(=O)Oc1cccc2c1C(=O)c1oc3c(c1C2=O)c(=O)oc1ccccc13
2. O=C1c2ccccc2C(=O)c2c1oc1c2c(=O)oc2ccccc21
3. O=C1c2cc3ccccc3cc2C(=O)c2c1oc1c2c(=O)oc2ccccc21
4. O=C1c2oc3c(c2C(=O)c2cccc(O)c21)c(=O)oc1ccccc13
5. COc1cccc2c1C(=O)c1oc3c(c1C2=O)c(=O)oc1ccccc13
6. Nc1ccc2oc(=O)c3c4c(oc3c2c1)C(=O)c1c(O)cccc1C4=O
7. CC(=O)Oc1cccc2c1C(=O)c1c(oc3c1c(=O)oc1ccccc13)C2=O

[86.8, -20.3, 9.77, 67.1, 42.7, -7.99, 4.02]

Hey, quick one: what's inhibition at 10 µM for each of these?
1. COc1cccc2c1C(=O)c1c(oc3c1c(=O)oc1ccccc13)C2=O
2. O=C1c2cccc(O)c2C(=O)c2c1oc1c2c(=O)oc2ccccc21

[-58, 19.5]

* * *

molecular target: CYP2C9 (Homo sapiens); assay: Inhibition of human CYP2C9 at 10 uM by P450-Glo assay relative to control; assay type: ADME
Sequence (P11712 whole entry): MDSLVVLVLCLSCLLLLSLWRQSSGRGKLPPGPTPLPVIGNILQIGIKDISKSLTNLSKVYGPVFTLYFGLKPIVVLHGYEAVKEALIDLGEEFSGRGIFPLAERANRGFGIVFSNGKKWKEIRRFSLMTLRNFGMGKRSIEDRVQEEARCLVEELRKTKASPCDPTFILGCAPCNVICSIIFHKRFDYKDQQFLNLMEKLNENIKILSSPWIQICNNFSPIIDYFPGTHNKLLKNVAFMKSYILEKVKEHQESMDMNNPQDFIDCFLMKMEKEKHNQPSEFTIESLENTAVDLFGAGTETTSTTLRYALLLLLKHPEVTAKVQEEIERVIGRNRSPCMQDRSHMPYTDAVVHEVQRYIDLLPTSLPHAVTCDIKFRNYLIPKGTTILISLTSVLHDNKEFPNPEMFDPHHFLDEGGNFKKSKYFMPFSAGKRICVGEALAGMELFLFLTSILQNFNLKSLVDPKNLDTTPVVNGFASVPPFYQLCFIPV
Give measured inhibition at 10 µM for each item. Keep answers brief.
Give bare numbers, in %.

Example compounds with recorded inhibition at 10 µM:
[
  {
    "structure": "Nc1ccc2oc(=O)c3c4c(oc3c2c1)C(=O)c1c(O)cccc1C4=O",
    "inhibition at 10 µM / %": 85.9
  },
  {
    "structure": "CC(=O)Oc1cccc2c1C(=O)c1c(oc3c1c(=O)oc1ccccc13)C2=O",
    "inhibition at 10 µM / %": 92.5
  },
  {
    "structure": "CC(=O)Oc1cccc2c1C(=O)c1oc3c(c1C2=O)c(=O)oc1ccccc13",
    "inhibition at 10 µM / %": 99.2
  }
]

Return reported inhibition at 10 µM values for all items listed beneath this line.
1. COc1cccc2c1C(=O)c1oc3c(c1C2=O)c(=O)oc1ccccc13
2. O=C1c2cccc(O)c2C(=O)c2c1oc1c2c(=O)oc2ccccc21
3. O=C1c2oc3c(c2C(=O)c2cccc(O)c21)c(=O)oc1ccccc13
4. COc1cccc2c1C(=O)c1c(oc3c1c(=O)oc1ccccc13)C2=O

1: 89.3; 2: 44.6; 3: 61.5; 4: 61.6

Give inhibition at 10 µM for each listed item.
1. O=C1c2ccccc2C(=O)c2c1oc1c2c(=O)oc2ccccc21
2. O=C1c2cc3ccccc3cc2C(=O)c2c1oc1c2c(=O)oc2ccccc21

32.4
42.4
